tested on: DU145 (prostate cancer); assay: Effect of compounds on tumor cell lines (assay of Latham et al.), DU145; assay type: cell-based; details: DU145 cells, 96 hours after treatment, 1 μM to 100 μM; read-out: DU 145 potency (IC50)
property: IC50

O=C(O)c1ccc(C(=O)C(=Cc2ccc(Cl)c([N+](=O)[O-])c2)SCc2ccc(Cl)cc2Cl)cc1 [Example 300]    1 to 10 µM
O=C(/C(=C\c1ccc(O)c([N+](=O)[O-])c1)SCc1ccc(Br)cc1)c1ccc(N2CCCC2)cc1 [Example 185]    > 100 µM
Cc1ccsc1C=C(SCc1ccc(Cl)cc1)C(=O)c1ccc([N+](=O)[O-])cc1 [Example 207]    > 100 µM

q: Field request: IC50 | item: CCOc1ccc(C=C(SCc2ccc(C)cc2)C(=O)c2ccc(Cl)cc2)cc1OC [Example 289]
a: 25 to 50 µM

q: Tell me the measured IC50 of COc1cc(OC)c(C=C(SCc2ccc(F)cc2)C(=O)c2ccc(Br)cc2)c(OC)c1 [Example 233] , please.
a: 1 to 10 µM

q: For the compound shown here, O=C(/C(=C\c1ccc(Cl)cc1)SCc1ccc(Br)cc1)c1ccccc1Cl [Example 169] , give the reported IC50.
a: 25 to 50 µM

q: Which IC50 value is on record for O=C(C(=Cc1ccc(Br)cc1)SCc1ccc(Cl)cc1)c1ccc(Cl)cc1 [Example 215] ?
a: 1 to 10 µM

q: Which IC50 reading was recorded for the compound O=C(C(=Cc1ccc([N+](=O)[O-])c(O)c1)SCc1ccc(Br)cc1)c1ccc([N+](=O)[O-])cc1 [Example 158] ?
a: 1 to 10 µM

Every entry's value here was drawn from patent US8808702B2.
